In this section, each of the molecules is paired with its reported melting point.

The following molecules have reported results that may help.
> print(dat)
                               input.smiles  value.observed
1  O=C(Nc1c(Cl)cncc1Cl)C(=O)c1cn(Cc2ccc(F)cc2)c2cc(O)ccc12   212 to 213 °C
2  CC(C)n1cc(C(=O)C(=O)Nc2c(Cl)cncc2Cl)c2cc(O)ccc21   245 to 247 °C

Now for the molecule whose melting point we want.
So what does the record say about melting point for "O=C(Nc1c(Cl)cncc1Cl)C(=O)c1cn(CC2CCCC2)c2ccc(O)cc12" ?
246 to 248 °C

Cited source for all entries: patent US6613794B2
